- Tested on: Staphylococcus aureus
- TEST_NAME: Antibacterial activity against Staphylococcus aureus ATCC 25923 at […] after 3 to 4 days
- Format: functional
EXPERIMENTAL_READOUT: diameter of the inhibition zone (DIZ)

Entry under test: Nc1nc(COC(=O)c2ccc([N+](=O)[O-])cc2)cs1 . Its diameter of the inhibition zone (DIZ) was <10 mm

Entry under test: Nc1nc(COC(=O)c2ccccc2[N+](=O)[O-])cs1 . Its diameter of the inhibition zone (DIZ) was 11 mm

Entry under test: N#Cc1ccccc1C(=O)OCc1csc(N)n1 . Its diameter of the inhibition zone (DIZ) was 11 mm

Entry under test: Nc1nc(COC(=O)c2cc(F)cc(C(F)(F)F)c2)cs1 . Its diameter of the inhibition zone (DIZ) was 11 mm

Entry under test: Nc1nc(COC(=O)Cc2cccc(C(F)(F)F)c2)cs1 . Its diameter of the inhibition zone (DIZ) was 16 mm

Entry under test: Nc1nc(COC(=O)Cc2ccccc2OC(F)(F)F)cs1 . Its diameter of the inhibition zone (DIZ) was 11 mm

Entry under test: Nc1nc(COC(=O)c2ccco2)cs1 . Its diameter of the inhibition zone (DIZ) was 16 mm

Entry under test: Nc1nc(COC(=O)c2c(Cl)cc(Cl)cc2Cl)cs1 . Its diameter of the inhibition zone (DIZ) was 16 mm

// data source = ChEMBL document CHEMBL1944562
